Tested on: Ran GTPase (GTP-bound) - importin-beta complex
Assay Text: disruptors of Ran-importin-beta complex formation – biochemical, FRET, CFP-Ran, YFP-importin-beta, homogeneous, primary screen (AID 2216)
Stated Conditions: cell-free CFP-Ran/YFP-importin-beta FRET ratio; concentration not given here
Screen size: about 300,000 compounds; about 3,300 (1.1%) were called active. Another 6% or so got no clear call; they are omitted.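 Rule for the calls: active = more than half of the replicate wells show a fall in the fluorescence ratio signal beyond about 16% (limit read from the data, passing the limit was not always enough); inconclusive = exactly half of the replicate wells pass the set limit; inactive = fewer than half of replicates pass the limit.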 The list comes from a sample in which actives are over-represented; it also holds close analogues and randomly drawn compounds.
Pick one and only one: T (active), F (inactive)

Consider the following illustrative entries.
CCCc1cc(=O)oc2c(C)c(O)c(CN3CCCCC3)cc12; T
COc1ccc(C2/C(=C(/O)c3ccc(OC(C)C)cc3)C(=O)C(=O)N2CCCN2CCOCC2)cc1 (configuration not stated); F
COc1ccc(Nc2ncnc3sc(C)cc23)cc1; F
Cc1cc(NC(=O)COc2ccc(Cl)cc2Cl)n(CCC#N)n1; F
CCCc1cc(=O)oc2c(C)c(OCC(=O)N3CCC(C(=O)O)CC3)ccc12; F

Now for a further compound.
Ask | Short answer needed: outcome of this test for O=C1C(=O)N(CCN2CCOCC2)C(c2ccccn2)/C1=C(/O)c1ccc(Cl)cc1 (configuration not stated) ?
Reply | T
